Target: ENPP3 (Homo sapiens (Human))
Sequence (O14638 whole entry, species assumed): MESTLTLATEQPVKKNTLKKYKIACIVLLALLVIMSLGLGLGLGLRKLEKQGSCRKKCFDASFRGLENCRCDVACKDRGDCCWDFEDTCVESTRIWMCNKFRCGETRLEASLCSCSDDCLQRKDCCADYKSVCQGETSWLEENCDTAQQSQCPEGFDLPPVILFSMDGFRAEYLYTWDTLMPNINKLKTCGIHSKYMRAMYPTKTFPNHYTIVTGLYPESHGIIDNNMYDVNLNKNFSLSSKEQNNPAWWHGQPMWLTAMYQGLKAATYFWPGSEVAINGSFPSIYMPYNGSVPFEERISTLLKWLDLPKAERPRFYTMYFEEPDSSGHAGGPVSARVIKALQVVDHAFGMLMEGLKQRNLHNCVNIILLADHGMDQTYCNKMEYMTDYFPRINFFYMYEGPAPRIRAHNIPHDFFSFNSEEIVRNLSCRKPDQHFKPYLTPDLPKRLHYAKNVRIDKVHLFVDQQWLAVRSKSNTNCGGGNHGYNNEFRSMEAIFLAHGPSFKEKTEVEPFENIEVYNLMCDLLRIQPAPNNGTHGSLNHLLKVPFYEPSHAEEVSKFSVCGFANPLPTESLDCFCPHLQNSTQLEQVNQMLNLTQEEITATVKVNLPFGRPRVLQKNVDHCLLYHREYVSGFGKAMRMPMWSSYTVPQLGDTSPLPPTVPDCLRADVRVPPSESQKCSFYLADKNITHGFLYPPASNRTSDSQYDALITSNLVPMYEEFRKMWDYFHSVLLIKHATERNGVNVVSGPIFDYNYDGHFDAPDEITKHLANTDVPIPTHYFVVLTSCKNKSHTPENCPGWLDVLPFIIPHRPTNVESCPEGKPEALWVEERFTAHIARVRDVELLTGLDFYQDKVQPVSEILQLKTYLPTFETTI
measure_name: IC50

Report IC50 for "CCCn1cc(-n2c(Cl)c(Sc3cccc(C(=O)O)c3F)c3ccc(Cl)c(F)c32)cn1" tested on ENPP3 (Homo sapiens (Human)).
> 10 µM

Measured values drawn from patent US12458627B2 for this set.
